Quick list: IC50 per entry.
- Tested on: Human adenocarcinoma cell line LoVo
- TEST: Cell Based Screen for Inhibitors of Raf Kinase, LoVo cells
- CONDITION_SET: Homo sapiens, 96 h, four days, SRB
Answer with a number only, understood to be in nM.

Below, each entry is followed by its recorded IC50 result.
# STRUCTURE_NOTATION, VAL
records = [
    ("Cn1ccnc1Sc1ccc(Nc2c(C#N)cnc3cc(-c4ccc(N5CCSCC5)nc4)ccc23)cc1Cl", 10),
    ("N#Cc1cnc2cc(-c3cc(CN4CCOCC4)c(CN4CCOCC4)s3)ccc2c1Nc1ccc(Oc2ccccc2)cc1", 2000),
    ("Cn1ccnc1Sc1ccc(Nc2c(C#N)cnc3cc(-c4cc(CN5CCOCC5)ccn4)ccc23)cc1Cl", 9.7),
]

IN: Write down IC50 measured for item "Cn1ccnc1Sc1ccc(Nc2c(C#N)cnc3cc(-c4ccc(CN5CCC(N6CCCC6)CC5)cn4)ccc23)cc1Cl"
OUT: 25

IN: Could you please provide reported IC50 for "Cn1ccnc1Sc1ccc(Nc2c(C#N)cnc3cc(-c4ccc(N5CCC(N6CCCC6)CC5)nc4)ccc23)cc1Cl" ? Thanks!
OUT: 3.2

IN: Report IC50 for "CCN1CCN(Cc2ccnc(-c3ccc4c(Nc5ccc(Sc6nccn6C)c(Cl)c5)c(C#N)cnc4c3)c2)CC1"
OUT: 275

IN: Could you please provide reported IC50 for "Cn1ccnc1Sc1ccc(Nc2c(C#N)cnc3cc(-c4ccc(N5CCN(CCO)CC5)nc4)ccc23)cc1Cl" ? Thanks!
OUT: 3.5

IN: Please look at this compound and report its IC50: "CN1CCN(Cc2ccc(-c3ccc4c(Nc5ccc(Sc6nccn6C)c(Cl)c5)c(C#N)cnc4c3)cn2)CC1"
OUT: 74

IN: Give reported IC50 value for "Cn1ccnc1Sc1ccc(Nc2c(C#N)cnc3cc(-c4ccc(CN5CCOCC5)o4)ccc23)cc1Cl"
OUT: 6.8

IN: Find the measured IC50 of "Cn1ccnc1Sc1ccc(Nc2c(C#N)cnc3cc(-c4ccc(CN5CCC(O)CC5)cc4)ccc23)cc1Cl" and report it.
OUT: 4.6

IN: Kindly indicate its recorded IC50. Item: "Cn1ccnc1Sc1ccc(Nc2c(C#N)cnc3cc(-c4ccc(CN5CCN(CCO)CC5)o4)ccc23)cc1Cl"
OUT: 24.5

IN: Supply measured IC50 of "CN1CCN(Cc2ccc(-c3ccc4c(Nc5ccc(Sc6nccn6C)c(Cl)c5)c(C#N)cnc4c3)nc2)CC1" in your reply.
OUT: 6

IN: Respond only with IC50 recorded for "Cn1ccnc1Sc1ccc(Nc2c(C#N)cnc3cc(-c4ccc(CN5CCN(CCO)CC5)s4)ccc23)cc1Cl"
OUT: 5.6

IN: Please report the measured IC50 for "Cn1ccnc1Sc1ccc(Nc2c(C#N)cnc3cc(-c4ccc(CN5CCOCC5)cc4)ccc23)cc1Cl"
OUT: 3800

Origin of the recorded values: patent EP1268431B1
